ASSAY SYSTEM: EphrinB2-EphB1 (Homo sapiens)
Construct: soluble human EphB1-His, EphB2-His, and EphB4-His ectodomains; commercially available human EphrinB1-Fc (EB1), EphrinB2-Fc (EB2), and EphrinB3-Fc (EB3) ectodomain proteins; purchased
Sequence (P54762 18-540 limits assumed): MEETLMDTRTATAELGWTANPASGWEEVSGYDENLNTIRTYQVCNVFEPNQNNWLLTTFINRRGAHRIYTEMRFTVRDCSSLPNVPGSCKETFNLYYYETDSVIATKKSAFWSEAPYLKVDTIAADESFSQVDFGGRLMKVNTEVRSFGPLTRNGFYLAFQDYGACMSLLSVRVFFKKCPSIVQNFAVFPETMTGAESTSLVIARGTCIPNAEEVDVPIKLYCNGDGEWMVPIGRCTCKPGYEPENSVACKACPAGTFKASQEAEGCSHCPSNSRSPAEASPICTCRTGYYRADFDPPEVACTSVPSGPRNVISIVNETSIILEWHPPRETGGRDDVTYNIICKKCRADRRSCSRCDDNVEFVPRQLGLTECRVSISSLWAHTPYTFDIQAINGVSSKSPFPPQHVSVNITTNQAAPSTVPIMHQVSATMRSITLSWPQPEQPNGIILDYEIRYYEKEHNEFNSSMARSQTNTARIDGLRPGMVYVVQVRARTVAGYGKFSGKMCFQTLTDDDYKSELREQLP
ASSAY INFO: Octet 80 sec association/500 sec dissociation, immobilized human EphrinB2-Fc binding to soluble human EphB1-His
MEASUREMENT CONTEXT: EphB1; 25 nM EphB1; 3.2 μM compound; A20-I as max control; 0* = less than 0, no inhibition; read-out: % Inhibition: Association + Dissociation (160 sec)
OBSERVATION TYPE: inhibition at 3.2 µM (%)
// return numeric value only (unit: %, not printed)

Recorded inhibition at 3.2 µM, per entry:
OCc1ccc2c(CN3CCOCC3)cc(Br)c(O)c2n1    29.1
Oc1ccc(CN2CCN(c3ccc(Br)cc3)CC2)c2cccnc12    30.6

Can you share its inhibition at 3.2 µM? I mean this compound: `Oc1c(Br)cc(CN2CCN(Cc3ccc(Br)cc3)CC2)c2cccnc12`
49.9

---

ASSAY SYSTEM: EphrinB2-EphB2 (Homo sapiens)
Construct: soluble human EphB1-His, EphB2-His, and EphB4-His ectodomains; commercially available human EphrinB1-Fc (EB1), EphrinB2-Fc (EB2), and EphrinB3-Fc (EB3) ectodomain proteins; purchased
ASSAY INFO: Octet tetramerization inhibition, immobilized human EphrinB2 binding to 50 nM soluble human EphB2
MEASUREMENT CONTEXT: Relative Dissociation IC50 (450 sec), Table A, EphrinB2-EphB2
OBSERVATION TYPE: IC50 (nM)
Value expressed in nM; do not type the unit.

These recorded examples may help you get a feel for the data.
Oc1ccc(CN2CCN(c3ccc(I)cc3)CC2)c2cccnc12 [Compound 32]    1000
O=[N+]([O-])c1ccc(N2CCN(Cc3ccc(O)c4ncccc34)CC2)cc1 [Compound 38]    1470
Oc1ccc(CN2CCN(Cc3ccc(Br)cc3)CC2)c2cccnc12 [Compound 42]    1050

Which IC50 is listed for O=S1(=O)CCN(Cc2cc(Br)c(O)c3ncccc23)CC1 [Compound 17] ?
780

// IC50 lookup, key: Oc1ccc(CN2CCOCC2)c2cccnc12 [Compound 2]
2750

---

The entries below come with measured EphB4 Inhibition Percent, Inhibition of Association ONLY values attached.
ASSAY SYSTEM: EphrinB2-EphB4 (Homo sapiens, UniProt P54760)
Construct: soluble human EphB1-His, EphB2-His, and EphB4-His ectodomains; commercially available human EphrinB1-Fc (EB1), EphrinB2-Fc (EB2), and EphrinB3-Fc (EB3) ectodomain proteins; purchased
Sequence (P54760 16-539 limits assumed): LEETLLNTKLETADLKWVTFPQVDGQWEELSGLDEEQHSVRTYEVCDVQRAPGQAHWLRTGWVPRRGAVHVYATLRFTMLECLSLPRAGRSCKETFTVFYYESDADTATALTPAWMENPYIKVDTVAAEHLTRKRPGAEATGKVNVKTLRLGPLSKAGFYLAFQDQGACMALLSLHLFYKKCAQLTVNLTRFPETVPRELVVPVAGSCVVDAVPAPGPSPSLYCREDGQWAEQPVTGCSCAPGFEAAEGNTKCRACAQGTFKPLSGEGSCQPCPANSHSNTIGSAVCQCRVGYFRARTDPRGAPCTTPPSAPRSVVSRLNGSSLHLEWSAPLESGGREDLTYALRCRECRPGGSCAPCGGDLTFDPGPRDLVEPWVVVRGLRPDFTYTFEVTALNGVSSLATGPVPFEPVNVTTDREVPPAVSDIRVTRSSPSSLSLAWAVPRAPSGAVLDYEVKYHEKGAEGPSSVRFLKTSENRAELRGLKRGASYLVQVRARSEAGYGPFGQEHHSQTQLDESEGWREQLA
ASSAY INFO: Octet 80 sec association/500 sec dissociation, immobilized human EphrinB2-Fc binding to soluble human EphB4-His
MEASUREMENT CONTEXT: at 3.2 μM and 80 seconds; immobilized human EphrinB2; 25 nM soluble human EphB4
Counter-ions that a name gives are not always drawn.
Value expressed in %; do not type the unit.

Sample records with EphB4 Inhibition Percent, Inhibition of Association ONLY:
Oc1ccc(CN2CCN(c3ccc(F)cc3F)CC2)c2cccnc12    5.0
COc1ccc(N2CCN(Cc3ccc(O)c4ncccc34)CC2)cc1    19.8
COc1ccccc1N1CCN(Cc2cc(I)c(O)c3ncccc23)CC1 [Compound 71-A, dihydrochloride]    17.5
Oc1c(Cl)cc(CN2CCOCC2)c2cccnc12    16.8
Oc1c(I)cc(CN2CCN(Cc3ccc(Br)cc3)CC2)c2cccnc12    18.1

Now for the molecule whose EphB4 Inhibition Percent, Inhibition of Association ONLY we want.
Reported EphB4 Inhibition Percent, Inhibition of Association ONLY for `Oc1ccc(CN2CCN(c3ccc(Br)cn3)CC2)c2cccnc12` : what is it?
20.9

---

ASSAY SYSTEM: EphrinB2-EphB2 (Homo sapiens)
Construct: soluble human EphB1-His, EphB2-His, and EphB4-His ectodomains; commercially available human EphrinB1-Fc (EB1), EphrinB2-Fc (EB2), and EphrinB3-Fc (EB3) ectodomain proteins; purchased
Sequence (P29323 19-543 limits assumed): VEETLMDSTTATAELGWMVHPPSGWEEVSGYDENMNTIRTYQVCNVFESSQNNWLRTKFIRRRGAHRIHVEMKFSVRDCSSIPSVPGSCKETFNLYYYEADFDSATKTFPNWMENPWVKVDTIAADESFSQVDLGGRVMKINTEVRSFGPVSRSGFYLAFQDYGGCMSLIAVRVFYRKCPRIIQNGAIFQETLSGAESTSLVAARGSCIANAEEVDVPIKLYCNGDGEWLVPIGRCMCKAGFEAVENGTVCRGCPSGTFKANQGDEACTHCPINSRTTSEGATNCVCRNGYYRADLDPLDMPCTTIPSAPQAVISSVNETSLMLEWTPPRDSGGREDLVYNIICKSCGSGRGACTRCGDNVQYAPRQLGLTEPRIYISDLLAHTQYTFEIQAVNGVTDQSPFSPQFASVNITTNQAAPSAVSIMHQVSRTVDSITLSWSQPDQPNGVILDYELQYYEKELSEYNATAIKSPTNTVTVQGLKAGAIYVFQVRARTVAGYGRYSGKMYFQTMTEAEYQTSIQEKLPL
ASSAY INFO: Octet tetramerization inhibition, immobilized human EphrinB2 binding to 50 nM soluble human EphB2
MEASUREMENT CONTEXT: tetramerization inhibitor IC50 (relative), association step; surmountable tetramer
pIC50: −log10 of the molar value.
Let's look at some compounds and their measured pIC50.

Here is how some compounds turned out for pIC50.
Cc1ccc2c(CN3CCOCC3)cc(Br)c(O)c2n1    < 5.52
O=C(Cc1ccccc1)Nc1ccc(N2CCN(Cc3ccc(O)c4ncccc34)CC2)cc1    ~5.92
O=[N+]([O-])c1ccc(N2CCN(Cc3ccc(O)c4ncccc34)CC2)cc1    ~5.80

From here, focus on the item given below.
API: value(readout=pIC50, system=EphrinB2-EphB2 (Homo sapiens)) for record `OCc1ccc2c(CN3CCOCC3)ccc(O)c2n1`
~5.52

---

ASSAY SYSTEM: EphrinB2-EphB2 (Homo sapiens, UniProt P29323)
Construct: soluble human EphB1-His, EphB2-His, and EphB4-His ectodomains; commercially available human EphrinB1-Fc (EB1), EphrinB2-Fc (EB2), and EphrinB3-Fc (EB3) ectodomain proteins; purchased
ASSAY INFO: Octet tetramerization inhibition, immobilized human EphrinB2 binding to 50 nM soluble human EphB2
MEASUREMENT CONTEXT: Relative Dissociation IC50 (450 sec), Table A, EphrinB2-EphB2
Entries annotated with measured pIC50
API: returns pIC50 as number; meaning -log10 of concentration in mol/L.

// worked examples, pIC50 included
O=S1(=O)CCN(Cc2ccc(O)c3ncccc23)CC1    5.94
COc1ccc(N2CCN(Cc3cc(Br)c(O)c4ncccc34)CC2)cc1    5.97
COc1ccc(N2CCN(Cc3ccc(O)c4ncccc34)CC2)cc1    5.97

Need pIC50 of Oc1c(Br)cc(CN2CCN(Cc3ccc(Br)cc3)CC2)c2cccnc12 [Compound 44] , thanks.
6.52

Give its pIC50 value. Item: `COc1ccccc1N1CCN(Cc2cc(Br)c(O)c3ncccc23)CC1`
6.72
